B1: Hairpin Ribozyme (parent)
chain: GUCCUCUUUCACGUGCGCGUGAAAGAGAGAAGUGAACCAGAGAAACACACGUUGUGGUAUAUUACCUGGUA

variants of: B1; test: self-cleavage, relative activity (ratio to wild type); higher = more cleavage; co-transcriptional
Label true when self-cleavage is at or above 0.5; otherwise label false.

POLYMER_SEQUENCE | ASSIGNED_LABEL
GUCCUCUUUCACGUGCGCGUGAAAGAGAGAAGUGAACCACAGAAACACACGUUGUGGUAUAUUACCUGAUA [G40C G69A] | false
GUCCUCUUUCACGUGCGCGCGAAAGAGAGAAGUGAACCAGAGAAACACACGUUGUAGUAUAUUACCUGGUA [U20C G56A] | false
GUCCUCUUUCACGUGCGCGUGAAAGAGAGAAGUGAACCAGAGAAACACACGUUGUGCCAUAUUACCUGGUA [G57C U58C] | false
GUCCUCUUUCACGUGCGCGUGAAAGAGAGGAGUGAACCAGAGAAACACACGUCGUGGUAUAUUACCUGGUA [A30G U53C] | false
GUCCUCUUUCACGUGCGCGUGAAAGAGAGAUGUGAACCAGAGAAACACACGUUGUGGUAUAUUAUCUGGUA [A31U C65U] | false
GUCCUCUUUCAAGUGCGCGUGAAAGAGAGAAGUGAACCAGAGAAACACGCGUUGUGGUAUAUUACCUGGUA [C12A A49G] | false
GUCCUCUUUCACGUGCGCGUGAAAGUGAGAAGUGAACCAGAGAAACACACGUAGUGGUAUAUUACCUGGUA [A26U U53A] | false
GUCCUAUUUCACGUGCGCGUGAAAGAGAGAAGUGAACAAGAGAAACACACGUUGUGGUAUAUUACCUGGUA [C6A C38A] | false
GUCCUCUUUCACGUGCGCGUGAAAGAGAGAAGUGAACCAGAGAAACAGACGUUGUGGUACAUUACCUGGUA [C48G U60C] | false
GUCCUCUUUCACGUGCGCGUGUAAGAGAGAAGUGAACCAAAGAAACACACGUUGUGGUAUAUUACCUGGUA [A22U G40A] | false
GUCCUCUGUCACGUGCGCGUGAAAGAGAGAAGUGAACCAGAGAAACACACAUUGUGGUAUAUUACCUGGUA [U8G G51A] | true
GUCCUCUUUCACGUGCGCGUGAAAGAGAGAAGUGACCCAGAGAAAGACACGUUGUGGUAUAUUACCUGGUA [A36C C46G] | false
GUCCUCUUUCACGUGCGCGUGAGAGAGAGAAGUGAACCAGCGAAACACACGUUGUGGUAUAUUACCUGGUA [A23G A41C] | true
GUCCUCUUUCAUGUGCGCGUGAAGGAGAGAAGUGAACCAGAGAAACACACGUUGUGGUAUAUUACCUGGUA [C12U A24G] | true
GUCCACUUUCACGUGCGCAUGAAAGAGAGAAGUGAACCAGAGAAACACACGUUGUGGUAUAUUACCUGGUA [U5A G19A] | false
GUCCUCUUUCACGUGCGCGUGAAAGAAGGAAGUGAACCAGAGAAACACACGUUGUGGUAUAUUACCUGGUA [G27A A28G] | false
GUCCUCUUUCACGUGCGCUUGAAAGAGAGAAGUGAACCAGAGAAACACACGUUGUGGUAUAUUGCCUGGUA [G19U A64G] | true
GUCCUCCUUCACGUGCGCGUUAAAGAGAGAAGUGAACCAGAGAAACACACGUUGUGGUAUAUUACCUGGUA [U7C G21U] | true
GUCCUCUAUCACGUGCGCGUGAAAGAGAGAAGUGAACCAGAGAAACACACGUUGUGGUAAAUUACCUGGUA [U8A U60A] | true
GUGCUCUUUCACGUGCGCGUGAAAGAGAGAAGUGAACCAGAGAAACACACGUUGUGGUAUAUUCCCUGGUA [C3G A64C] | false
GUCCUCUUUCACGUGCGCGUGAAAGAGAGAAGUGAACCAGAGAAACACACGUUGUGCAAUAUUACCUGGUA [G57C U58A] | false

// provenance: the RNAGym collection of RNA variant scans (doi:10.7554/elife.80360)
